Target entity: Protein O-GlcNAcase (Homo sapiens) (UniProt O60502)
Sequence (O60502 whole entry): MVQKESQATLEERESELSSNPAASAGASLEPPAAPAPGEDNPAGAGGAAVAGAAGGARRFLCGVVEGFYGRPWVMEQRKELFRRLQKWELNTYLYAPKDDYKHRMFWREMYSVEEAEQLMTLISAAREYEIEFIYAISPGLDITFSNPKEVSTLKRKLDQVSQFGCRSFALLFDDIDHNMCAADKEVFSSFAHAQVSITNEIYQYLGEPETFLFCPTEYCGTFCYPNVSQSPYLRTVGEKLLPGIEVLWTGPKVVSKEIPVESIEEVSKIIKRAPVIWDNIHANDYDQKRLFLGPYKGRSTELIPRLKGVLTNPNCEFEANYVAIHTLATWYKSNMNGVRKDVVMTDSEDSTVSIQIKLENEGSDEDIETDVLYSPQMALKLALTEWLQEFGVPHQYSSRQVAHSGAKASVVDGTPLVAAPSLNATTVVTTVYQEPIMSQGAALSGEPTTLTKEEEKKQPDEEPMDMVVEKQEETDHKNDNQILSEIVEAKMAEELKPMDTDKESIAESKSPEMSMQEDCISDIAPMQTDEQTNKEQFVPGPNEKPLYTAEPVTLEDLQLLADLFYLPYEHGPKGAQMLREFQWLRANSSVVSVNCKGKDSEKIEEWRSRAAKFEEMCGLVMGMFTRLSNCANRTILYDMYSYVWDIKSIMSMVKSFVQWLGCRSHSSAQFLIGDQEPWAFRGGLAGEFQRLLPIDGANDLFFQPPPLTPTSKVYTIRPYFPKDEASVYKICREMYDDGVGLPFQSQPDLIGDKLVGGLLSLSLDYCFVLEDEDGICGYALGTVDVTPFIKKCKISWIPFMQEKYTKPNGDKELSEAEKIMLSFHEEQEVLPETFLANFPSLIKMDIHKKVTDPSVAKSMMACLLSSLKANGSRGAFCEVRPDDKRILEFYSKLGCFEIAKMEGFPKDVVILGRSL
Assay comment: Inhibition of recombinant human OGA expressed in Escherichia coli BL21 (DE3) at 20 uM using 4-Mu-GlcNAc as substrate preincubated for 10 mins followed by substrate addition and measured after 30 mins by fluorescence assay relative to control
Assay metric: inhibition (%)

[A] COc1ccc2c3c(cccc13)C(=O)N(CCNCCCS[C@@H]1O[C@H](CO)[C@@H](O)[C@H](O)[C@H]1NC(C)=O)C2=O
[B] COc1ccc2c3c(cccc13)C(=O)N(CCCNCCCS[C@@H]1O[C@H](CO)[C@@H](O)[C@H](O)[C@H]1NC(C)=O)C2=O
[C] CC(=O)N[C@@H]1[C@@H](O)[C@H](O)[C@@H](CO)O[C@H]1SCCCNCCCN1C(=O)c2cccc3c([N+](=O)[O-])ccc(c23)C1=O
// ranking: key=inhibition, reverse=True Give me the labels in the order the question wants. B, A, C
(B: 68%, A: 34.3%, C: 20%)
